Recorded values, source patent US20240424113A1.

# Test system: CaCl2
# Test Name: Antifungal sensitivity testing (broth microdilution MIC)
# Format: cell-based
# Condition Label: Table 4; 96-well broth microdilution
Assay Metric: MIC50 (µM)
Number in µM, nothing else.

// sample Nc1nc2sc(CNC(=O)C3CCN(CC(O)(Cn4cncn4)c4ccc(F)cc4F)CC3)cc2n(-c2ccc3c(c2)N(c2ccccc2)CCO3)c1=O (stereo not drawn) , its MIC50 was 6.3

* * *

// values below are log10 of Kd; system is Hsp90 Nuclear Binding Domain (NBD) (Aspergillus fumigatus)
Sequence (P40292 whole entry, looked up, the tested form may be a part): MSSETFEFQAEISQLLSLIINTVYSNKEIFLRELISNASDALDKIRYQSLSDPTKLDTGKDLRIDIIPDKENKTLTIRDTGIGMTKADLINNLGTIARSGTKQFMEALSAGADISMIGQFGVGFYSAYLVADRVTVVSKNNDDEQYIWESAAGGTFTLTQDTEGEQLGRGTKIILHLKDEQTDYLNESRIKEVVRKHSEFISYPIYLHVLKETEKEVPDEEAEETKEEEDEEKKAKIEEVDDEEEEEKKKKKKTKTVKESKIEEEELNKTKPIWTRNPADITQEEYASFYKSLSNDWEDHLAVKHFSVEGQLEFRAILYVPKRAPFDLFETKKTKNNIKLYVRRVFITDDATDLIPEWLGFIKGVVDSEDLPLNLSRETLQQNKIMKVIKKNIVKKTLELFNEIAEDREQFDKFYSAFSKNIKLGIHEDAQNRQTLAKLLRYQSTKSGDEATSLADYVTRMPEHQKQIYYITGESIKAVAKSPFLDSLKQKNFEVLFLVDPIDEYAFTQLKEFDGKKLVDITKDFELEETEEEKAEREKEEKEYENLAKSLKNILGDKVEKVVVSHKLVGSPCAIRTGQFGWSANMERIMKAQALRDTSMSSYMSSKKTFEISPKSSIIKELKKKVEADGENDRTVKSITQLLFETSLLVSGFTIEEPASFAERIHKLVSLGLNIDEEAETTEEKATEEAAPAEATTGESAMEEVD
Please interpret these as log10 of Kd where Kd is in nM.

Sample answers from the record:
# Compound, Measured Value
rows = [
    ("Nc1nc2sc(C(=O)NC3CCN(CC4COC(Cn5cncn5)(c5ccc(F)cc5F)C4)CC3)cc2n(-c2ccc3c(c2)N(c2ccccc2)CCO3)c1=O (stereo not drawn) [Compound I-32]", 1.70),
    ("CC1(NCc2cc3c(nc(N)c(=O)n3-c3ccc4c(c3)N(c3ccccc3)CCO4)s2)CCN(CC(O)(Cn2cncn2)c2ccc(F)cc2F)CC1 (stereo not drawn) [Compound I-117]", 2.47),
    ("Nc1nc2sc(C(=O)N[C@@H]3CCN(CC[C@@](O)(Cn4cncn4)c4ccc(F)cc4F)C3)cc2n(-c2ccc3c(c2)N(c2ccccc2)CCO3)c1=O [Compound I-70]", 0.46),
    ("Nc1nc2sc(C(=O)NC3CCN(CCCC(O)(Cn4cncn4)c4ccc(F)cc4F)CC3)cc2n(-c2ccc3c(c2)N(c2ccccc2)CCO3)c1=O (stereo not drawn) [Compound I-64]", 1.29),
    ("Nc1nc2sc(CNC3CCN(CCC(O)(Cn4cncn4)c4ccc(F)cc4F)CC3)cc2n(-c2ccc3c(c2)N(c2ccccc2)CCO3)c1=O (stereo not drawn) [Compound I-72]", 2.29),
    ("Nc1nc2sc(C(=O)N[C@@H]3CCN(CCC(O)(Cn4cncn4)c4ccc(F)cc4F)C3)cc2n(-c2ccc3c(c2)N(c2ccccc2)CCO3)c1=O (stereo partly drawn) [Compound I-36]", 0.57),
]

Hsp90 Nuclear Binding Domain (NBD) (Aspergillus fumigatus) data for Nc1nc2sc(C(=O)NC3CCN(C[C@](O)(Cn4cncn4)c4ccc(F)cc4F)CC3)cc2n(-c2ccc3ccn(-c4ccccc4)c3c2)c1=O [Compound I-23] ; its log10 of Kd: 1.66

Value sought: log10 of Kd, system Hsp90 Nuclear Binding Domain (NBD) (Aspergillus fumigatus), item Nc1nc2sc(CN3CCN(CC(O)(Cn4cncn4)c4ccc(F)cc4F)CC3)cc2n(-c2ccc3c(c2)N(c2ccccc2)CCO3)c1=O (stereo not drawn) [Compound I-68] . Result: 2.74

Form field, log10 of Kd with Hsp90 Nuclear Binding Domain (NBD) (Aspergillus fumigatus), item Nc1nc2sc(CNC3CCN(C(=O)C[C@@](O)(Cn4cncn4)c4ccc(F)cc4F)CC3)cc2n(-c2ccc3c(c2)N(c2ccccc2)CCO3)c1=O [Compound I-129] : 2.84

Hey, Hsp90 Nuclear Binding Domain (NBD) (Aspergillus fumigatus) data for Nc1nc2sc(CN[C@@H]3CCCN(CC(O)(Cn4cncn4)c4ccc(F)cc4F)C3)cc2n(-c2ccc3c(c2)N(c2ccccc2)CCO3)c1=O (stereo partly drawn) [Compound I-75] : log10 of Kd came out at 2.53

Form field, log10 of Kd with Hsp90 Nuclear Binding Domain (NBD) (Aspergillus fumigatus), item CC(O)c1c(C(=O)NC2CCN(CC(O)(Cn3cncn3)c3ccc(F)cc3F)CC2)sc2nc(N)c(=O)n(-c3ccc4ccn(-c5ccccc5)c4c3)c12 (stereo not drawn) [Compound I-56] : 2.36

// returns log10 of Kd for Nc1nc2sc(C(=O)N[C@H]3CCN(CC(O)(Cn4cncn4)c4ccc(F)cc4F)C3)cc2n(-c2ccc3c(c2)N(c2ccccc2)CCO3)c1=O (stereo partly drawn) [Compound I-14] with Hsp90 Nuclear Binding Domain (NBD) (Aspergillus fumigatus); value = 2.16
